The reported numbers originate from a protein production outcome set (Wang et al. 2014).

ASSAY: label from the status in PepcDB records
VALUE TYPE: protein production

A selection of reference data follows.
| RESIDUE STRING | protein production |
| --- | --- |
| MNNLINNPLFGILLTLFAFEIGMTIYKKTKIPLLNPLLIAIALVIAVLVSCHISFETYNIGGSFINAFLGPATVILAVPLYKQLQLLKNHFVPIMTGIIVGSFASMCCVIIMGYFLGVNHELIASLVPKSVTTPIGVEVASGLGGIPSITVIAVIITGITGAIIAPMVCKLLKIDHEVAMGVSMGTAAHAVGTTKALEIGETHGAMSSLSIGVAGLITVFLAPPIYMLSALILKFV | failed |
| MKKILFCLPLLLLALQSCEIEDEYMYDKGLYTIDWDAAADSSSVTLIDRFWNTEENYFNYGNDGSIKDFHYWPQAHAMDVMIDAYNRTGDSKYSDLFDKWYVGIKAKNGGSYWNNFYDDMEWIALTMIRLYEVTDENKYLETSQEMWNEIKTGWNDYAGGGIAWTHDQLWSKNACSNGPAALIAARLYRINGNQEDLDWAVNIYKWERENLFNPATGAIYDNVNGETGELSTLSLSYNQGTFLGAAYELYKITGEESYLKDARKAANFAISNSSMIDTGNNLLRDEGDGDGGLFKGIFMRYYVQLIMEPNLDPIYKKKFITFFNNNAEILWRKGINKLDLLYNTNWAMNNSGNNHLTTQTSGCTLIEAKALFEKSLK | failed |
| MDLSLLKALSEADAIASSEQEVRQILLEEAARLQKEVRFDGLGSVLIRLNESTGPKVMICAHMDEVGFMVRSISREGAIDVLPVGNVRMAARQLQPVRITTREECKIPGLLDGDRQGNDVSAMRVDIGARTYDEVMQAGIRPGDRVTFDTTFQVLPHQRVMGKAFDDRLSCYLLVTLLRELHDAELPAEVWLVASSSEEVGLRGGQTATRAVSPDVAIVLDTACWAKNFDYGAANHRQIGNGPMLVLSDKSLIAPPKLTAWIETVAAEIGVPLQADMFSNGGTDGGAVHLTGTGVPTLVMGPATRHGHCAASIADCRDILQMEQLLSALIQRLTRETVVQLTDFR | not failed |
| MGLGRQSLNIMTFSGQELTAIIKMAKSMVMADGKIKPAEIAVMTREFMRFGILQDQVDLLLKASDSIEASQAVALIARMDEERKKYVASYLGVIMASDGDIDDNELALWTLISTLCGLPTMTVMEAINNMKNL | not failed |
| MIITKNISLPELYQEWLDLKIMPSNRSDVTKKKYLSRKVTLEKLFGDKPISQIRPSEYQRIMNNYGQRVSRNFLGRLNTGVKQSLQMAIADKVMIEDFTQNVELFSTVKLEHHHHHH | not failed |

In the following, a different sequence is considered.
Item `MENQTPSQALISKGWKYFIIVGVIVALAGLGATSLPVMAGVTISTIIGTLLLITGLVQVYHTFRIHSWKEKLWYVLSALFYIVGALFILFKPLEGLMTITTIMIVIMIFNGLTRMIFGFTNRSLPGCGMVILSGLLSVVIGGYFFSLFDNPEFSLSLLGTFVGVSLIFEGMSFLFIGLRLRNASKA` has what recorded protein production?
failed

* * *

ASSAY: label from the status in PepcDB records
VALUE TYPE: protein production

| RESIDUE STRING | REPORTED MEASUREMENT |
| --- | --- |
| MSNESETDVDEETADEEEQAEGLQKGDVVKLAYTARTVDGGQLVDTTDEEVAEDDGIDTEQQEFGPRTIVLGENHIFPDVEQDIYGKEVGDEGDVTVAAADAFGEYDEEEVRTVSKDKIPEDDRYPGAHVDLEGEHGHVETIIGGRARVDFNHPLAGEDVEYDYEVLEEVTDREEKAQGIIQMMLDMELDVWFETDTVEEEQLVESEDEDEDEESEPEYETVEVEKETLYIEATPQLTMNQQWMMGKQQIAQQLTQLLDIDRIIVQEEIGGGGMGMPGMMGGMGGAGGADIEDALEDADVDAEEIVEEIEGAEE | failed |
| MEPGPEDYLVCAIAKPADKRLVVEKLLGKGARFFTLIHPSVIMGENVVIGQGAVICPSTVLSVDLRIGAFVTLNIGCLVGHDADIGDFSTLSGHCDITGGVVLEEEVFMGTHASVLPNVKVGKQAVVGAGSVAIRNVAAGITVFGVPAKRISGLEHHHHHH | failed |

* * *

ASSAY: label from the status in PepcDB records

| RESIDUE STRING | protein production |
| --- | --- |
| MTMDGDSSTTDASQLGISADYIGGSHYVIQPHDDTEDSMNDHEDTNGSKESFREQDIYLPIANVARIMKNAIPQTGKIAKDAKECVQECVSEFISFITSEASERCHQEKRKTINGEDILFAMSTLGFDSYVEPLKLYLQKFREAMKGEKGIGGAVTATDGLSEELTEEAFTNQLPAGLITTDGQQQNVMVYTTSYQQISGVQQIQFS | failed |
| MICLPETGFLAEASPRLKQMLAAQAAEIGLARGDTLFKQGDPGDALYAVLSGALEISILSLDGRKLSLDLVGPGAVFGEIALFDPGPRTATVSAAEPARVLRVLSADVMAELRRHPELAIDMVRLAGQRMRWMGGQLNEQVFLPVPTRLARKLLHLAPHHDAGGATVRLSQAELAEYVGATREAVSKTLAHWKRMGVIEVARGTLAIRDPQALRALADPDQI | failed |

* * *

ASSAY: label from the status in PepcDB records
VALUE TYPE: protein production

| RESIDUE STRING | REPORTED MEASUREMENT |
| --- | --- |
| MRIGIISVGPGNIMNLYRGVKRASENFEDVSIELVESPRNDLYDLLFIPGVGHFGEGMRRLRENDLIDFVRKHVEDERYVVGVCLGMQLLFEESEEAPGVKGLSLIEGNVVKLRSRRLPHMGWNEVIFKDTFPNGYYYFVHTYRAVCEEEHVLGTTEYDGEIFPSAVRKGRILGFQFHPEKSSKIGRKLLEKVIECSLSRR | not failed |
| MNSSIVNAGIDPQVRESLKSFVGEAIDYANTSGKDAAIAKFNDQNGTFVRGNLYVYAFDYNGTTLALPYQPQLIGTDLSGLQDPYGVNYTKLEHHHHHH | not failed |
| MAHTVYENARIYTVNDQQPTASVLVVEQGKIIYVGGNDGAKQFKATAAELFDLEGKTVLPGFIESHAHPLEHHHHHH | failed |
| MNLPNKLTVLRIFMIPIFIIIVSVPMDWGTISFGDTTLAVTQLVGAIIFAVASFTDWLDGKIARAQGLVTNFGKFADPLADKMLVMTAFIVLVGQGKVPAWIVAIIVCRELAVTGLRLLLVEHGEVMAAAWPGKVKTATQMVAIILLFINNIPFSALHLPLDQIMLYACLIFTIYSGVDYFAKNKDVFKGSM | failed |

In the following, a different sequence is considered.
Item `GERPEPVFDAFADRLAEVAAVPYAMVNFIDENRQFFAGLHAPDGTGSGGRPAADGAEPPDVRRYMARDYGFCPHVVVRRKALVLEDVCDYPRFAGNPVVDEIGIRSYLGAPLIDRTGIALGTICVVDIEPRPWGRAGLETIKALAAELVEQIGRRESGGI` has what recorded protein production?
failed

* * *

ASSAY: label from the status in PepcDB records

| RESIDUE STRING | protein production |
| --- | --- |
| MKSYQPKSLLNDLQYYITPPHDCSYLDNKSARMVFLDPIHRIDVVTLSELSRVGFRRSGDFVYRPECHLCRQCLSCRVPVHDFNMNSLQKKAWKRNQDLRMSIVPTHAATSVHYQLYERYINERHADGDMFPPSLDQFEKFLVHSCTESFFLELWKDDRLICVSTCDLMDDGLSAVYTFFDPDENRRSLGVFAILKQLEYVKSIDLDYLYLGYWVPHSQKMNYKSQYIPLELLLDGQWRRLNRALSQEEISQLGESLMTILPSEWNSMIIKLEHHHHHH | failed |
| MPKSCSASNCTNRYNNKNPEITFHRFPFSKPSVLKQWLDNIGRDDFQPRKHMVICSLHFTPDCFSGLGNRKNLLWNAVPTLFAVPTQDANQNNFRKRLKRALQSASEKWDGITPDGLPLFTEEMHEDTQDCNNNEVADCQSTKVFAAADHTYALSDACTTKARLFNILDANRWLRKRLQAKCRVIKRMKLKLKDAQRELLTLRQQIRHRHVNH | failed |

* * *

ASSAY: label from the status in PepcDB records
VALUE TYPE: protein production

A selection of reference data follows.
| RESIDUE STRING | protein production |
| --- | --- |
| QRALVLTAARGRGKSAATGLSIAGLIEKLRERKEKSIRIIVTAPSIASASQVMSFAKLGLEALGEELSVKVSDTGHIKSLRGDYFKLEYVPPDAAIEDEGELLIIDEAAALGINYIDLALRAWKKVALVTTVHGYEGSNKAFLRYLRRLIESKRIRVKWVNMEQPLRYAKGDPIEKWLYDALLLD | failed |
| MPSIKIRENEPFEIAIRRFKRACEKAGVLSEVRRREYYEKPTEERKRKAAAAIKRHLKKLSRERFALQNLRKGRPQQLEHHHHHH | not failed |
| MVTGMFSLGRTYLFRVPEGEELLTYIKNFCKKEGIETAIINGIGTLKNPKIGYFLEEKKEYKVIPLKGSYELISLIGNVSLKDGEPFVHAHVSLGNEEGIVFGGHLVEGEVFVAEIFLQELKGEKIERKPTKYGLALWEELKLLEHHHHHH | not failed |
| MARSQQFPSSTAVSVSPPAASSIAKPPQPVLDGLWAFAPNRDTLGGTAYFLKLPQGNWLIDAPAWHGETQAFVEEQGGLQGVFLTHRGAFGKAIAIQQHFDCDLVVQEQEAYLLPGANVTTFEQEQAIAPALTAIWTCGHSPGSACLYWEGHGGVLFTGRHLLPTRAGGVAPLRTAKTFHWPRQIRNTQMLCDRFSSETLAWICPGASSGFLRGRKAIASAYMQLQQLDWSALSEAQPLL | failed |

Item `RPAVFPRMGVLPARVALLGQGQHWGVDFCLNVFRANFAEDREIQSEDVVRDLLRAQDLDADALIAQARQESTKEALRKQVDRARALGIFGAPTFMVDGEMFWGNDRLEDALA` has what recorded protein production?
failed
